target_under_test: human glycine transporter-2 (GlyT2) (Homo sapiens, UniProt Q9Y345)
Construct: The entire coding region of the human GlyT2 cDNA was cloned into the mammalian expression vector pClNeo; expressed in transfected cells; host or cells: Cos-7 cells (African green monkey kidney, ATCC), stably transfected, G418-selected; vector pClNeo
Sequence (Q9Y345 whole entry): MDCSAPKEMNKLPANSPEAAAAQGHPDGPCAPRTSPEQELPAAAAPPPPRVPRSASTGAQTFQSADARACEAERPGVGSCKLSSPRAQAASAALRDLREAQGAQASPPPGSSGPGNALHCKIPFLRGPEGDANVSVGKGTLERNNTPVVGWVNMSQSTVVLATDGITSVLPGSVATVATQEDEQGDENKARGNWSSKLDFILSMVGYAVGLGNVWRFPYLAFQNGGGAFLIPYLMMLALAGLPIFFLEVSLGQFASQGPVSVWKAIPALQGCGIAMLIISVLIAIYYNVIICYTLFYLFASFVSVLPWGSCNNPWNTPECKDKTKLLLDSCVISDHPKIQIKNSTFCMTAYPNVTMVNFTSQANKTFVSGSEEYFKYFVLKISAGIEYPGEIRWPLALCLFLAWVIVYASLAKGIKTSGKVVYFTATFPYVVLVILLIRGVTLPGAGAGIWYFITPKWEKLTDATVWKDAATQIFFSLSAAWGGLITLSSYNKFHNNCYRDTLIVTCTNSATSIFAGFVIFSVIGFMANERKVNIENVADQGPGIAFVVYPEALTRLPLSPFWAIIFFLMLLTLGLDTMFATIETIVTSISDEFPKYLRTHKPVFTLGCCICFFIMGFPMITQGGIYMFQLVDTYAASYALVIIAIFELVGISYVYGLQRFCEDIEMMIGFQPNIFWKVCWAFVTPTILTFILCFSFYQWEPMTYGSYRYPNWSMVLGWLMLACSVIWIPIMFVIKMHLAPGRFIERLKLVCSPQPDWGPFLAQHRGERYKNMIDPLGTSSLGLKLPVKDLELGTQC
experimental_protocol: Inhibition of [14C]-glycine uptake in COS-7 cells transfected with human GlyT2
Format: cell-based
cond: Table 2, 20 μM, 2 h at 37° C., Cos-7 cells stably transfected with human GlyT2
measurement_name: IC50 (nM)

I = O=C(Nc1cccc(-c2ccccc2)c1)N[C@@H](Cc1ccccc1)C(=O)NCCCN1CCCC1
II = O=C(Nc1ccc(-c2ccccc2)cc1)N[C@@H](CCCNCCN1CCCC1)Cc1ccccc1
III = O=C(Nc1ccc(-c2ccccc2)cc1)N[C@H](CCCNCCN1CCCC1)Cc1ccccc1
// query Task for the reader: rank each entry by its IC50, from the minimum upward. Order the labels as requested and give them as your answer.
// result III, II, I
(III: 18 nM, II: 340 nM, I: 998 nM)

A = O=C(Nc1cccc(Oc2ccccc2)c1)N[C@@H](Cc1ccccc1)C(=O)NCCCN1CCCC1
B = O=C(Nc1ccc(-c2ccccc2)cc1)NC(C(=O)NCCN1CCCC1)(c1ccccc1)c1ccccc1
// query Given A and B , report the one with the higher recorded IC50. Write down the label attached to your selection.
// result B
(B: 8000 nM, A: 440 nM)

A = O=C(Nc1ccc(Oc2ccccc2)cc1)N[C@H](CNCCN1CCCC1)Cc1ccccc1
B = O=C(Nc1ccc(Oc2ccccc2)cc1)N[C@@H](Cc1cscn1)C(=O)NCCN1CCCC1
// query Given the two records A and B , choose the one whose IC50 value is lower. API: response body contains the label of the selected item.
// result A
(A: 181 nM, B: 1060 nM)

Hello, the source for this data is patent US7202269B2, in case you need it.
